# Test system: brains, heart, liver, muscle, and DRG of the NHPs
# METHOD: Maturation of TTM-001 and TTM-002 capsids, NGS enrichment in NHP tissues
# Assay type: in vivo
# SETUP CONDITIONS: NGS fold-enrichment, liver DNA of NHPs, relative to AAV9 control
Sorting guide: entries reporting Fold Enrichment relative to AAV9, Liver DNA (NHP) beneath 0.1 fold go in the yes (1) pile, the rest go in the no (0) pile.

• KTETHSGSPHSKAQNQQT = no (0)
• KTSNGGGSPHSKAQNLQT = yes (1)
• KTEKTSGSPHSKAQNQQT = no (0)
• KTDRGSGSPHSKAQNQQT = no (0)
• KTITGSGSPHSKAQTQLT = yes (1)
• KTINGSGSPHSKAQAKLT = no (0)
• KNCLGSGSPHSKAQNQQT = yes (1)
• KTEDKSGSPHSKAQNQQT = yes (1)
• KTERTSGSPHSKAQNQQT = no (0)
• KTINGGGSPHSKAQNQQC = no (0)
• KTDNGSGSPHSKAHNQQT = yes (1)
• KTIDGGGSPHSKAQNKQT = no (0)
• KTVNGSGSPHSKAQNHLT = no (0)
• KTEKASGSPHSKAQNQQT = no (0)
• KNADGSGSPHSKAQNQQT = yes (1)
• KTINGSGSPHSKSQNVQT = no (0)
• KTINGSGSPHSKGHWQQT = no (0)
• ETINGSGSPHSKAQNLQT = no (0)
• KTINGSGSPHSKAQRTMT = no (0)
• KTVNGGGSPHSKAQNQQS = no (0)
• KTINGSGSPHSKTKSQQT = no (0)
• KTINGSGSPHSKSQTQQN = yes (1)
• KTTNGSGSPHSKAQYQHT = yes (1)
• KTERSSGSPHSKAQNQQT = yes (1)
• KTIRDAGSPHSKAQNQQT = no (0)
• KTINGSGSPHSKAQHPST = no (0)
• KTIDGSGSPHSKAQNQQH = yes (1)
• KTEARSGSPHSKAQNQQT = no (0)
• KTINGSGSPHSKAQYQHA = yes (1)
• KNINGSGSPHSKAQSQQT = yes (1)
• KTINGSGSPHSKAQAPST = no (0)
• KTERLSGSPHSKAQNQQT = no (0)
• KTINGSGSPHSKAQSPPT = no (0)
• KTCNKSGSPHSKAQNQQT = yes (1)
• KTEKMSGSPHSKAQNQQT = no (0)
• KTINGSGSPHSKAQAIKT = no (0)
• KTERASGSPHSKAQNQQT = yes (1)
• KTDKNSGSPHSKAQNQQT = no (0)
• KTIIGGGSPHSKAHNQQT = no (0)
• KTINGGGSPHSKALNQQN = no (0)
• KTVKGSGSPHSKAQDQQT = yes (1)
• KTERPSGSPHSKAQNQQT = no (0)
• KTINGSGSPHSKAQNTYA = no (0)
• KTDLKSGSPHSKAQNQQT = no (0)
• KTIDGSGSPHSKGQNRQT = yes (1)

* * *

# System: brains, heart, liver, muscle, and DRG of the NHPs
# METHOD: Maturation of TTM-001 and TTM-002 capsids, NGS enrichment in NHP tissues
# Assay type: in vivo
# SETUP CONDITIONS: NGS fold-enrichment, liver RNA of NHPs, relative to AAV9 control
OBSERVATION TYPE: Fold Enrichment relative to AAV9, Liver RNA (NHP) (fold)

- KTEKNSGSPHSKAQNQQT: 0.159
- KTINGGGSPHSKSQNQHT: 0.000
- KEINGRGSPHSKAQNQQT: 0.000

* * *

# Tested on: brains, heart, liver, muscle, and DRG of the NHPs
# METHOD: Maturation of TTM-001 and TTM-002 capsids, NGS enrichment in NHP tissues
# Format: in vivo
# SETUP CONDITIONS: NGS fold-enrichment, liver RNA of NHPs, relative to AAV9 control
OBSERVATION TYPE: Fold Enrichment relative to AAV9, Liver RNA (NHP) (fold)

* KTINGSGSPHSKSQNVQT | 0.202
* KTFNGSGSPHSKAPNLQT | 0.000
* KTINGSGSPHSKAQHPST | 1.345
* KTVNGSGSPHSKAQYQHT | 0.000

* * *

Entries annotated with measured Fold enrichment over AAV9 in the brain of Mice (BALB/c)
# System: brain
# METHOD: NGS fold enrichment of synthetic library (passage 3) in BALB/c mice, first cross-species screen
# Assay type: in vivo
# SETUP CONDITIONS: synthetic library passage 3, intravenous, RNA NGS, brain of BALB/c mice, relative to wild-type AAV9
OBSERVATION TYPE: Fold enrichment over AAV9 in the brain of Mice (BALB/c) (fold)

* GSNLSFQSGQNQQT | 0.719
* GSGQNQQLKSSAQT | 0.716
* GSGIQSSYSQNQQT | 0.684
* GWERSFVSGQNQQT | 0.538
* GSGQYASSIPNQQT | 0.489
* GERAFPTSGQNQQT | 0.362
* GSGQTHGGQHNQQT | 1.098

* * *

# Tested on: brain
# METHOD: Maturation of TTM-001 capsid, NGS enrichment in brain of CD-1 Outbred mice
# Format: in vivo
# SETUP CONDITIONS: NGS fold-enrichment of TTM-001 matured AAV capsid variants in the brain of CD-1 Outbred mice; intravenous 1.0×10^12 VG/dose; 14 days in life; RNA; relative to non-matured TTM-001 control
Entries annotated with measured Fold enrichment over TTM-001
OBSERVATION TYPE: Fold enrichment over TTM-001 (fold)

- KTINGRISPHLKAQNQQT: 2.028
- KTINGSGSPHSKAHRSQT: 2.819
- KTINGSGSPHSKAQRHVT: 3.404
- KTINGSGSPHSKAQLIVT: 2.235
- KTINGSGSPHSKAQGFRT: 2.279
- KTINGSGSPHSKVRAQQT: 2.412
- KTINGSGSPHSKMRAQQT: 3.382
- KTINGSGSPHSKAQVSIT: 2.028
- KTINGSGSPHSKLMRQQT: 2.056
- KTINGSGSPHSKACSAQT: 2.754
- KTINGSGSPHSKARNKQT: 2.108
- KTINGSGSPHSKARLYQT: 2.201
- KTINGSSSPHCLAQNQQT (peptide inserted in AAV capsid): 2.074
- KTINGRQSPHAKAQNQQT: 2.026
- KTINGSPSPHRKAQNQQT: 2.430

* * *

# Tested on: brain
# METHOD: Maturation of TTM-001 capsid, NGS enrichment in brain of CD-1 Outbred mice
# Type: in vivo
# SETUP CONDITIONS: NGS fold-enrichment of TTM-001 matured AAV capsid variants in the brain of CD-1 Outbred mice; intravenous 1.0×10^12 VG/dose; 14 days in life; RNA; relative to non-matured TTM-001 control
Entries annotated with measured Fold enrichment over TTM-001
OBSERVATION TYPE: Fold enrichment over TTM-001 (fold)

- KTINGSGSPHSLWLNQQT: 4.412
- KTINGYSSPHRKAQNQQT: 2.007
- KTINGSLSPHCLAQNQQT: 2.577
- KDLRGSGSPHSKAQNQQT: 2.238
- KTINGSGSPHSKARGIQT: 2.140
- KTINGSGSPHSKAGCGQT: 5.341
- KTINGSGSPHSKRLAQQT: 2.397
- KTINLIRSPHSKAQNQQT: 2.920
- KGLVGSGSPHSKAQNQQT: 2.412
- KTINGSGSPHSKAQCLFT: 2.421
- KTINGSGSPHSKPLRQQT: 2.844
- KTINGSGSPHRSRQNQQT: 2.270
- KTINGSSSPHWLAQNQQT (peptide inserted in AAV capsid): 2.490
- KTINGSGSPHSMLYNQQT: 2.808
- KTINGSGSPHPYAQNQQT: 2.598
- KTINGSGSPHSKAQITLT: 3.177
- KTINGSGSPHSKAWILQT: 2.004
- KTINGSGSPHVTWQNQQT: 2.281
- KTINGSGSPHSKRLLQQT: 2.659
- KTINMLRSPHSKAQNQQT: 2.000
- KTINGSGSPHSKAHRLQT: 2.603
- KTINGSGSPHSKGCLQQT: 2.320
- KTINGSGSPHSKRALQQT: 2.114
- KTINGLLSPHWKAQNQQT: 4.173
- KTINGRSSPHGKAQNQQT: 3.035
- KTINGSNSPHRKAQNQQT: 2.218
- KTINGSGSPHSKRSMQQT: 3.561
- KTINGSGSPHVLWQNQQT: 4.533
- KTINGSGSPHSKQSRQQT: 2.156
- KTINGSGSPHSKAQNRIR: 2.039
- KTINGSGSPHLNWQNQQT: 3.112
- KTINGSGSPHSKCLLQQT: 3.374

Attribution: patent US20260250318A1
